As shown below, each of these molecules has a reported IC50 value.
- Tested on: BxPC3 pancreatic cancer cell line
- measurement_description: Cell proliferation assay (DAPI)
- Format: cell-based
- condition_summary: Homo sapiens, BXPC-3

// below: answered molecules
[[record]]
molecule = "Cn1ccc(-c2sc3nc(-c4nccn4C)nc(NCC4CCOC4)c3c2-c2ccccc2)n1 (stereo not shown) [drawing 547]"
measured_on = "BxPC3 pancreatic cancer cell line"
observed_property = "IC50"
observed_measurement = "> 1 µM"

[[record]]
molecule = "COC1CCN(c2nc(-c3nccn3C)nc3sc(-c4ccn(C)n4)c(-c4ccccc4)c23)C1 (stereo not shown) [drawing 545]"
measured_on = "BxPC3 pancreatic cancer cell line"
observed_property = "IC50"
observed_measurement = "> 1 µM"

[[record]]
molecule = "COCCNc1nc(-c2nccn2C)nc2sc(-c3cccc(OC)c3Cl)c(-c3ccc(OC)cc3)c12 [drawing 562]"
measured_on = "BxPC3 pancreatic cancer cell line"
observed_property = "IC50"
observed_measurement = "0.75 to 1 µM"


Kindly consider the entry below.
Given CO[C@@H]1CCC(Nc2nc(-c3nccn3C)nc3sc(-c4ccn(C)n4)c(-c4ccccc4)c23)C1 (stereo partly shown) [drawing 549] , respond with its IC50.
0.75 to 1 µM
